Biological target: Macrophage-stimulating protein receptor (Homo sapiens, UniProt Q04912)
Sequence (Q04912 25-304 limits assumed): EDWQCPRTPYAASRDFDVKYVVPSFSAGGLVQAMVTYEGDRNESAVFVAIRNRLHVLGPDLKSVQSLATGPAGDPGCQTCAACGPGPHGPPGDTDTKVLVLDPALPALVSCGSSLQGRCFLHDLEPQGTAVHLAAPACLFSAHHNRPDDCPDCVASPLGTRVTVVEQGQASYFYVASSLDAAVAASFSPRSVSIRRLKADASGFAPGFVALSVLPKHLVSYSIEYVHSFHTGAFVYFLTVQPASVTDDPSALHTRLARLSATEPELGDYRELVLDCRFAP
Sequence (Q04912 310-1400 limits assumed): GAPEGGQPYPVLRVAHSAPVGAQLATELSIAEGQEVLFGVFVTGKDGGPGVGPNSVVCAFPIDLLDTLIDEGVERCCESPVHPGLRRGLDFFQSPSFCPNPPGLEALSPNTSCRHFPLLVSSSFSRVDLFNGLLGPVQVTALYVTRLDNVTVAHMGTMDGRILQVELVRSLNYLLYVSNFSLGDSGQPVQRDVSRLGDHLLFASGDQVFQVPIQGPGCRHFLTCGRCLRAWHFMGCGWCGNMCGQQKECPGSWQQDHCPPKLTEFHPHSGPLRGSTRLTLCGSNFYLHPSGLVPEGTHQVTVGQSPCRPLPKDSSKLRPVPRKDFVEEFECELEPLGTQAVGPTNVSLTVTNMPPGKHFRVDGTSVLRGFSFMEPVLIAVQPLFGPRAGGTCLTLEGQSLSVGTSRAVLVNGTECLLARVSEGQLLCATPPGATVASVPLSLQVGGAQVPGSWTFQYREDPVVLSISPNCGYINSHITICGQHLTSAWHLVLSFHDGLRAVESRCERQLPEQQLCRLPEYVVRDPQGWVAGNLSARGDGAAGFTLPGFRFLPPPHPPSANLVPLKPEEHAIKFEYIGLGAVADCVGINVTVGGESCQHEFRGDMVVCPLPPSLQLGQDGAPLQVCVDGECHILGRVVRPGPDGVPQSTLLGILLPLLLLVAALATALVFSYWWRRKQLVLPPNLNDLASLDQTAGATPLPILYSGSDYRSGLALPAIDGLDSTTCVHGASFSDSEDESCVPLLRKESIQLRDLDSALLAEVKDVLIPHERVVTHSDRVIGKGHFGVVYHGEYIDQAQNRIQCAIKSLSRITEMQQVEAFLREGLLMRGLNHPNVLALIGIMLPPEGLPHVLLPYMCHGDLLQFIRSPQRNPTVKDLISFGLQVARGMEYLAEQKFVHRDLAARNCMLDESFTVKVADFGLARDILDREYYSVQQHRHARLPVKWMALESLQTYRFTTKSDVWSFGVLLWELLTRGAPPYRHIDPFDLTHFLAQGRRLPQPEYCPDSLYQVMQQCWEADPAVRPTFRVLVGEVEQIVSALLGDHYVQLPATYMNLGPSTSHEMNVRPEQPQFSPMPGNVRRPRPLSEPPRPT
Experiment: Inhibition of recombinant human GST-tagged RON cytoplasmic domain expressed in baculovirus expression system
experimental.readout: IC50

Please report IC50 for every entry that follows.
1. COCCn1cc(NC(=O)c2csc(-c3nncn3C(C)C)n2)cn1
2. CC(C)(C)c1ccc(C(=O)Nc2cn3cc(-n4ccnc4)ccc3n2)cc1

-- reply
1. > 20 µM
2. > 20 µM

----------
Biological target: CYP1A2 (Homo sapiens, UniProt P05177)
Sequence (P05177 whole entry): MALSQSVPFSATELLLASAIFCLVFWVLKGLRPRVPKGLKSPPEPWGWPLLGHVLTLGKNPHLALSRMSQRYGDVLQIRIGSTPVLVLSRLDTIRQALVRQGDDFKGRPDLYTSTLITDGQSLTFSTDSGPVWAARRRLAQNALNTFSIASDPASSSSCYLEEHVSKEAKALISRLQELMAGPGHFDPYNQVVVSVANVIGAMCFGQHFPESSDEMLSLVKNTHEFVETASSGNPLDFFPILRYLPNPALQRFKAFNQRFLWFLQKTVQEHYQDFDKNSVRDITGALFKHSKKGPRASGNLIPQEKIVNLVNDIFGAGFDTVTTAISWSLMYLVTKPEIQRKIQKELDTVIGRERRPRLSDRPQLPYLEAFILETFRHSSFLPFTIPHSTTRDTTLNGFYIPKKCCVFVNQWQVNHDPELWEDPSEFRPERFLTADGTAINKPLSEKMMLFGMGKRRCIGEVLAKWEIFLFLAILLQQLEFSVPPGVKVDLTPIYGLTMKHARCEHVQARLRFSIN
Test: Inhibition of CYP1A2 (unknown origin) at 10 uM relative to control
Type: ADME
experimental.readout: inhibition at 10 µM (%)
Numbers only, in %.

-- ask Specify inhibition at 10 µM for COCCn1cc(NC(=O)c2csc(-c3nncn3C(C)C)n2)cn1 and stop.
-- reply 8

----------
So I've got a bunch of compounds here, and I need their IC50 values.
Biological target: Ephrin type-A receptor 3 (Homo sapiens, UniProt P29320)
Sequence (P29320 whole entry, the tested form may be a part): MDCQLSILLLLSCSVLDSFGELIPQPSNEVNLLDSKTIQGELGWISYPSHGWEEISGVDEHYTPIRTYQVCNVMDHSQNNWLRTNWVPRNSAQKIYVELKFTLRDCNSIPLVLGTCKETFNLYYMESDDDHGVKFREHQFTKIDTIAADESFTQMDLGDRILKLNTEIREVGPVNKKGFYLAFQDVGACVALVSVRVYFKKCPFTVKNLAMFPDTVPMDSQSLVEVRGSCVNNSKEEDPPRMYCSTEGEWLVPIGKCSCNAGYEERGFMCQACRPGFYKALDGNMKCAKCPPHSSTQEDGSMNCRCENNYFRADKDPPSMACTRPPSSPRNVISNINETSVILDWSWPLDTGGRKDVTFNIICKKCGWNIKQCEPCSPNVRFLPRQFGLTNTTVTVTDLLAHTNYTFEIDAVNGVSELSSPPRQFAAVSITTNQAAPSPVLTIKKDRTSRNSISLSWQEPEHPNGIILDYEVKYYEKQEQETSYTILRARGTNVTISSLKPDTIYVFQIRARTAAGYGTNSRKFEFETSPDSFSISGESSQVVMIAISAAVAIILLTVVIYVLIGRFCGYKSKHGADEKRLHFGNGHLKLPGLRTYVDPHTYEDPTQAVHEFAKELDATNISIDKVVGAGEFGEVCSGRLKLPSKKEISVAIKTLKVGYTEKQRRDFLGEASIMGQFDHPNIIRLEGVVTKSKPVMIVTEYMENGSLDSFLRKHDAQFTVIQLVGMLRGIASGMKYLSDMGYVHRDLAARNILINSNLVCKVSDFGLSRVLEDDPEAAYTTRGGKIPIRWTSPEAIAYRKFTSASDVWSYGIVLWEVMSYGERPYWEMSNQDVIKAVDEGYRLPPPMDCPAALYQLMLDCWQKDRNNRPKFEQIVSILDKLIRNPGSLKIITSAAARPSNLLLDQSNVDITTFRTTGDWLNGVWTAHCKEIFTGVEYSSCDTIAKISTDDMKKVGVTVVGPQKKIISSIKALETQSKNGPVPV
Experiment: Inhibition of recombinant human His-tagged EPHA3 cytoplasmic domain (569 to 976 residues) expressed in baculovirus expression system

# smiles.str, target, IC50
records = [
    ("CC(C)(C)c1ccc(C(=O)Nc2cn3cc(-n4ccnc4)ccc3n2)cc1", "Ephrin type-A receptor 3 (Homo sapiens, UniProt P29320)", "> 20 µM"),
]

-- ask Specify IC50 for COCCn1cc(NC(=O)c2csc(-c3nncn3C(C)C)n2)cn1 and stop.
-- reply > 20 µM

----------
Target: Proto-oncogene tyrosine-protein kinase receptor Ret (Homo sapiens, UniProt P07949)
Sequence (P07949 whole entry, the tested form may be a part): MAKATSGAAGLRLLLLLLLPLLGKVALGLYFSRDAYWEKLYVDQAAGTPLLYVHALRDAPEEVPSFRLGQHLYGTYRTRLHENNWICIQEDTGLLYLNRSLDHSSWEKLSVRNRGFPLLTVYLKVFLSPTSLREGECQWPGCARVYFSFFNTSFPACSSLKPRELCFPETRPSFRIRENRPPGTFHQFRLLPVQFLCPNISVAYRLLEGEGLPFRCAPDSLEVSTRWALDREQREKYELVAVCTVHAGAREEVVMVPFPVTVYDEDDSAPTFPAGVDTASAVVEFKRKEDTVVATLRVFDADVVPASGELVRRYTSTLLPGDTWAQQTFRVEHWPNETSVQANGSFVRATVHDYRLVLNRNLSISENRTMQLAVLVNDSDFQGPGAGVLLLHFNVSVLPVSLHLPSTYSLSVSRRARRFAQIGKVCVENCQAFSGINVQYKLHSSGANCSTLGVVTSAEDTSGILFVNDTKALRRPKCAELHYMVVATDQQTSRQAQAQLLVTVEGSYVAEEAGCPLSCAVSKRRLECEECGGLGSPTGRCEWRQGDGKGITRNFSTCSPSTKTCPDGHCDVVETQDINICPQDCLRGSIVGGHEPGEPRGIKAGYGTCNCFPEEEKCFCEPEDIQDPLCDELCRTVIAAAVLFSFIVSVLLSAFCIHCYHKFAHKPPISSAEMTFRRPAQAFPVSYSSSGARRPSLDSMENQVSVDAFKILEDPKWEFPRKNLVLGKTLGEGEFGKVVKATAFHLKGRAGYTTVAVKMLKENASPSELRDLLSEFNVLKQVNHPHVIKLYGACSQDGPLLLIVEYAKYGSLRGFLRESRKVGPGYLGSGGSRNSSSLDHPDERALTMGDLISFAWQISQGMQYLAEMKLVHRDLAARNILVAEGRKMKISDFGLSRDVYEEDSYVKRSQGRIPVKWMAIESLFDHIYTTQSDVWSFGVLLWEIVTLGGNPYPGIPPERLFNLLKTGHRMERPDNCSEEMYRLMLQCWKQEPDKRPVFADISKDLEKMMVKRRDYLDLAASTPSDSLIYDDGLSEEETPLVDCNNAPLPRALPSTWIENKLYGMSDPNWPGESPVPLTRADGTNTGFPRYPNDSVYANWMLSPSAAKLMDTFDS
Experiment: Inhibition of recombinant human GST-tagged RET cytoplasmic domain expressed in baculovirus expression system
So I've got a bunch of compounds here, and I need their pIC50 values.
One number for each entry, as −log10 of the molar value.

# smiles.str, target, recorded.number
data = [
    ("COCCn1cc(NC(=O)c2csc(-c3nncn3C(C)C)n2)cn1", "Proto-oncogene tyrosine-protein kinase receptor Ret (Homo sapiens, UniProt P07949)", 6.21),
]

Query compound follows.
-- ask Specify pIC50 for CC(C)(C)c1ccc(C(=O)Nc2cn3cc(-n4ccnc4)ccc3n2)cc1 and stop.
-- reply 4.94

----------
Experiment: Thermodynamic solubility of the compound in pH 6.8 solution
Type: physicochemical
Conditions: read-out: Therm_solubility
experimental.readout: solubility thermodynamic (µM)
One number for each entry, in µM.

-- ask Specify solubility thermodynamic for COCCn1cc(NC(=O)c2csc(-c3nncn3C(C)C)n2)cn1 and stop.
-- reply 208
